# testTarget: BTKv2 (Homo sapiens, UniProt Q06187)
# Sequence (Q06187 whole entry): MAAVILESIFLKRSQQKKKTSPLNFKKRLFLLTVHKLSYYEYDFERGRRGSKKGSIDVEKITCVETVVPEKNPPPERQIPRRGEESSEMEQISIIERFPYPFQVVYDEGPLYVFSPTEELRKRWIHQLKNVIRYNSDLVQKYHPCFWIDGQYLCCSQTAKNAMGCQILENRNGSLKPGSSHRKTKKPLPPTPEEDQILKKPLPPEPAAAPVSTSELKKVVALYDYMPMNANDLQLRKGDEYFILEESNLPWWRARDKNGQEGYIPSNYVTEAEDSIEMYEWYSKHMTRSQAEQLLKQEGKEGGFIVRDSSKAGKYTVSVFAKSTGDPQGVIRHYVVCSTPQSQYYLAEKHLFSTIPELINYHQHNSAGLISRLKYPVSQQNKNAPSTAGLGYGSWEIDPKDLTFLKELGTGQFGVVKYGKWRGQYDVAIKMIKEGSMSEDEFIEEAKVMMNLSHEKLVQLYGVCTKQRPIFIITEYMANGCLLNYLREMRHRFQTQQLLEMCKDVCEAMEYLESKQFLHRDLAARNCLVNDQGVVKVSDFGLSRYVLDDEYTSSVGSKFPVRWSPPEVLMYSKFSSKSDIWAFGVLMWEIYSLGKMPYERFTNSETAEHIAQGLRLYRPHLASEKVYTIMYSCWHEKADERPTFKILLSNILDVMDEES
pIC50: −log10 of the molar value.
readoutKind: pIC50

Query string: May I ask what pIC50 has been recorded for Cn1c2c(c3ccc(Cl)c(Cl)c31)C(C#N)C1(CCNCC1)NC2=O (racemic) ?
Result string: < 5.00

----------
# testTarget: HER4 (Homo sapiens)
# Sequence (Q15303 26-1308): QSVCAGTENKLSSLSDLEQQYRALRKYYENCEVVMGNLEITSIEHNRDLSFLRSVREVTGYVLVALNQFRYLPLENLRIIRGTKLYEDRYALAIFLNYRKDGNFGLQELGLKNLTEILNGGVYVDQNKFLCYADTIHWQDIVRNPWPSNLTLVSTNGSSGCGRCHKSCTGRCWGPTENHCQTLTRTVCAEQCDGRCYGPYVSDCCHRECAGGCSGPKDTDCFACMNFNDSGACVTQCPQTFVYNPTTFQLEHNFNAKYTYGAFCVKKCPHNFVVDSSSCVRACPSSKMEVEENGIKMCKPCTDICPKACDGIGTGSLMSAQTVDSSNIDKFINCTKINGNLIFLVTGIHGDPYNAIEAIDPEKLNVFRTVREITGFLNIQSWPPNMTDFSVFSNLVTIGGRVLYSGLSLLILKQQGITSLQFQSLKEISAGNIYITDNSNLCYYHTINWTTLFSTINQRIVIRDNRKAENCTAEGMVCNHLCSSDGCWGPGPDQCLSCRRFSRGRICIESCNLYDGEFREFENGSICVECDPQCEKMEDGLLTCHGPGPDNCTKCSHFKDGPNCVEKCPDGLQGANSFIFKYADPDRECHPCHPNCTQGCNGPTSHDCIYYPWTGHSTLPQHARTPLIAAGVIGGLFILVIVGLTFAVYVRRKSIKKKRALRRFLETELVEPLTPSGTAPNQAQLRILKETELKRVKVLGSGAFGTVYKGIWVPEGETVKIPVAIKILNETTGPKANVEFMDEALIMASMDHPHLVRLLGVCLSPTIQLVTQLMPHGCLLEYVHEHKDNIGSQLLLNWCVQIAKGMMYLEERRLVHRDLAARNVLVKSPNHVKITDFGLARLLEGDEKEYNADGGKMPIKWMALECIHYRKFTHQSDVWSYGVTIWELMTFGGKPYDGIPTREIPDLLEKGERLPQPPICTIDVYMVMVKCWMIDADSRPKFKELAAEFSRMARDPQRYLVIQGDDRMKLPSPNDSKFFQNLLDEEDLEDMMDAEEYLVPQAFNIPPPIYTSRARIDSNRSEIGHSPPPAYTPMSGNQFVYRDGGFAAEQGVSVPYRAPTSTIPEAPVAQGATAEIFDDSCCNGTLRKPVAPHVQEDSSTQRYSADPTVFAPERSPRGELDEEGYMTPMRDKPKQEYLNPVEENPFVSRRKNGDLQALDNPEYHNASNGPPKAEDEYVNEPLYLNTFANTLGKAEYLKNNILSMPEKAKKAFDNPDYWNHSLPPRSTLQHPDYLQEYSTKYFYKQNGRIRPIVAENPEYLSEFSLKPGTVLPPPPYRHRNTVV
# test: In vitro kinase selectivity panel
# Assay type: biochemical
readoutKind: IC50

Query string: Which measured IC50 value corresponds to Cn1c2c(c3ccc(Cl)c(Cl)c31)C(C#N)C1(CCNCC1)NC2=O (racemic) [Compound 20] ?
Result string: > 10 µM

----------
# testTarget: CaMK2 (Homo sapiens)
# Sequence (Q13555 whole entry): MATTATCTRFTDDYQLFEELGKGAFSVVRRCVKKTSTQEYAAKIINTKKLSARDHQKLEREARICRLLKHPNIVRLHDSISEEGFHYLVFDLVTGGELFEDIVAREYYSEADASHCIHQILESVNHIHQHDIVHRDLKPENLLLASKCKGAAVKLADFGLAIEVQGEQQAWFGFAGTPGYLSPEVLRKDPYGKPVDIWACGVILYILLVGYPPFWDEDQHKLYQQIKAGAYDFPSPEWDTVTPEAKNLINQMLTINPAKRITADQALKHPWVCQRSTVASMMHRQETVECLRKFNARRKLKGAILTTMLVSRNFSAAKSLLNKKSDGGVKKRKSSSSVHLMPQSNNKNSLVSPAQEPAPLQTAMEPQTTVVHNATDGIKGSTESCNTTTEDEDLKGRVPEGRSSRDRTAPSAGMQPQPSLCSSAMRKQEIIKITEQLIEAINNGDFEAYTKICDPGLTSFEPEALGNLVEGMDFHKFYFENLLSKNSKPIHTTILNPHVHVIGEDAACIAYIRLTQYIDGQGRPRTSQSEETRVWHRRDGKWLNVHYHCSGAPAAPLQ
readoutKind: IC50

Query string: Please report the recorded IC50 for Cn1c2c(c3ccc(Cl)c(Cl)c31)C(C#N)C1(CCNCC1)NC2=O (racemic) .
Result string: < 100 nM

----------
# testTarget: PKA (Homo sapiens)
readoutKind: IC50

Query string: Item under review: Cn1c2c(c3ccc(Cl)c(Cl)c31)C(C#N)C1(CCNCC1)NC2=O (racemic) . Reported IC50?
Result string: < 0.1 µM

----------
# testTarget: PIM1 (Homo sapiens, UniProt P11309)
# Sequence (P11309 whole entry): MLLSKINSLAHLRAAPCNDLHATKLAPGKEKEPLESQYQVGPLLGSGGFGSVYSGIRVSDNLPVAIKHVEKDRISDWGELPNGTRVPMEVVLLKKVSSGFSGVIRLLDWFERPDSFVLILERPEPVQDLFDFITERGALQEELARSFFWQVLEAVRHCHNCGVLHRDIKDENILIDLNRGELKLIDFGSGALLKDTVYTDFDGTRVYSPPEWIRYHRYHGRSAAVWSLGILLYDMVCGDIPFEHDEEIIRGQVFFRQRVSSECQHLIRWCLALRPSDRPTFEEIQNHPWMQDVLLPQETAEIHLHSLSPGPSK
# test: Thermal stability shift assay
# Type: binding
# conditionContext: Tm shift assay
readoutKind: activity against PIM1 (in words)

1. CCN1CCC2(CC1)NC(=O)c1c(c3ccc(Cl)c(Cl)c3n1C)C2C#N (racemic) :: highly potent inhibitors
2. CN1CCC2(CC1)NC(=O)c1c(c3ccc(Cl)c(Cl)c3n1C)C2C#N (racemic) :: highly potent inhibitors
3. Cn1c2c(c3ccc(Cl)c(Cl)c31)C(C#N)C1(CCNCC1)NC2=O (racemic) :: highly potent inhibitors
